# Method description: Rat plasma protein binding
# Format: in vitro ADME
Reported metric: recovery at 10 μM (%)
The answer is to be given in %; state only the numeric part.

Task item: # query: recovery at 10 μM of entry `CSc1ccccc1[C@H]1CCCN1C(=O)CNC(=O)N(Cc1ccc(N)c(Cl)c1)Cc1nnn(C)n1`
Reply: 99

###

# System under test: Cyp A (Homo sapiens, UniProt P62937)
# Sequence (P62937 whole entry): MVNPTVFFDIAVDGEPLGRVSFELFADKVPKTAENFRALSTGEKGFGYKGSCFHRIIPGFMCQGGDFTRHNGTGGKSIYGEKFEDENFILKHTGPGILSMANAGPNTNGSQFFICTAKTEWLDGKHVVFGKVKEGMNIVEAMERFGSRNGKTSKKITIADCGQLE
# Method description: Isothermal titration calorimetry (ITC), Cyp A
# Assay type: binding
# Set-up: full-length human CypA (M1 – E165); made in house; host or cells: Escherichia coli OverExpress C41 BL21(DE3)
# Condition parameters: ITC, 25 °C, pH 6.5, 2% DMSO; read-out: Kd Cyp A from ITC
Reported metric: pKd
Scale note: pKd = -log10(concentration in M).

Task item: Endpoint output: pKd of CSc1ccccc1[C@H]1CCCN1C(=O)CNC(=O)N(Cc1ccc(N)c(Cl)c1)Cc1nnn(C)n1 [Compound 11] . Value?
Reply: 7.09
